assay: growth inhibition, single agents and combos, UWB1.289, cell-based, BGB or cisplatin combos, synergistic combos for chromothripsis tumors (AID 1671456); details: UWB1.289 ovarian carcinoma cells, at 0.5 µM, stronger effect = higher value;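 further: cells exposed to compound for four days; 0% = vehicle DMSO and 100% = killing by high DMSO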
Measurement kind: inhibition (%)
Supply the numeric figure in %, leaving out any unit text.

- Molecule: "CC1CNC(=O)NC1=O (configuration not stated)"
  Unit: "%"
  inhibition: -15.4
- Molecule: "C[C@@H]1COCCN1c1cc(C2(S(C)(=O)=O)CC2)nc(-c2cccc3[nH]ccc23)n1"
  Unit: "%"
  inhibition: 63.9
- Molecule: "CC(C)OC(=O)[C@H](C)NP(=O)(OC[C@H]1O[C@@H](n2ccc(=O)[nH]c2=O)C(C)(F)[C@@H]1O)Oc1ccccc1 (some centres not stated)"
  Unit: "%"
  inhibition: -8.12
- Molecule: "Cc1cc(C#N)cc(C)c1Oc1nc(Nc2ccc(C#N)cc2)nc(N)c1Br"
  Unit: "%"
  inhibition: 1.48
- Molecule: "Cc1c(Br)cc(NCC(=O)N/N=C/c2cc([N+](=O)[O-])ccc2O)cc1Br"
  Unit: "%"
  inhibition: 5

Task: I have this molecule here, C=C(NC(=O)C(=C)NC(=O)c1csc(C2=NC3c4csc(n4)C4NC(=O)c5csc(n5)C(C(C)(O)C(C)O)NC(=O)C5CSC(=N5)/C(=C/C)NC(=O)C(C(C)O)NC(=O)c5csc(n5)C3(CC2)NC(=O)C(C)NC(=O)C(=C)NC(=O)C(C)NC(=O)C(C(C)CC)NC2C=Cc3c(C(C)O)cc(nc3C2O)C(=O)OC4C)n1)C(N)=O (configuration not stated) , and I need its recorded inhibition.
Result: -0.91

Task: Do the same for COc1cccc2c1C(=O)c1c(O)c3c(c(O)c1C2=O)CC(O)(C(=O)CO)CC3OC1CC(N)C(OC2CCCCO2)C(C)O1 (configuration not stated) please
Result: 12.2
